Reported fold increase vs WT by item:
# Measurement target: T1, FcγRIIB (form not stated) (UniProt P31994 43-217, limits assumed)
# T1 construct: also called FcγRIIB (ELISA)
# T1 sequence (looked up): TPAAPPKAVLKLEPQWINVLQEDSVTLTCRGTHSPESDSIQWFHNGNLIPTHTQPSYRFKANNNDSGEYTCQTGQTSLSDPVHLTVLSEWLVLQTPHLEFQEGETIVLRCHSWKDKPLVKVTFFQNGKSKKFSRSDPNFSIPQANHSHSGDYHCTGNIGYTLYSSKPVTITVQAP
# Test description: ELISA

# Binder, Unit abbrev, fold increase vs WT
data = [
    ("ch4-4-20 K326Q, K334E, T359N, T366S (antibody) heavy: ASTKGPSVFPLAPSSKSTSGGTAALGCLVKDYFPEPVTVSWNSGALTSGVHTFPAVLQSSGLYSLSSVVTVPSSSLGTQTYICNVNHKPSNTKVDKKVEPKSCDKTHTCPPCPAPELLGGPSVFLFPPKPKDTLMISRTPEVTCVVVDVSHEDPEVKFNWYVDGVEVHNAKTKPREEQYNSTYRVVSVLTVLHQDWLNGKEYKCKVSNQALPAPIEETISKAKGQPREPQVYTLPPSRDELNKNQVSLSCLVKGFYPSDIAVEWESNGQPENNYKTTPPVLDSDGSFFLYSKLTVDKSRWQQGNVFSCSVMHEALHNHYTQKSLSLSPGK", "x", 5),
    ("ch4-4-20 T215P, K274N, A287G, K334N, L365V, P396L (antibody) PEPKSCDKTHTCPPCPAPELLGGPSVFLFPPKPKDTLMISRTPEVTCVVVDVSHEDPEVNFNWYVDGVEVHNGKTKPREEQYNSTYRVVSVLTVLHQDWLNGKEYKCKVSNKALPAPIENTISKAKGQPREPQVYTLPPSRDELTKNQVSVTCLVKGFYPSDIAVEWESNGQPENNYKTTPLVLDSDGSFFLYSKLTVDKSRWQQGNVFSCSVMHEALHNHYTQKSLSLSPGK", "x", 4),
    ("ch4-4-20 A378V, N390I, V422I (antibody) heavy: ASTKGPSVFPLAPSSKSTSGGTAALGCLVKDYFPEPVTVSWNSGALTSGVHTFPAVLQSSGLYSLSSVVTVPSSSLGTQTYICNVNHKPSNTKVDKKVEPKSCDKTHTCPPCPAPELLGGPSVFLFPPKPKDTLMISRTPEVTCVVVDVSHEDPEVKFNWYVDGVEVHNAKTKPREEQYNSTYRVVSVLTVLHQDWLNGKEYKCKVSNKALPAPIEKTISKAKGQPREPQVYTLPPSRDELTKNQVSLTCLVKGFYPSDIVVEWESNGQPENIYKTTPPVLDSDGSFFLYSKLTVDKSRWQQGNIFSCSVMHEALHNHYTQKSLSLSPGK", "x", 5),
    ("ch4-4-20 V348M, K334N, F275I, Y202M, K147T (antibody) ASTKGPSVFPLAPSSKSTSGGTAALGCLVTDYFPEPVTVSWNSGALTSGVHTFPAVLQSSGLYSLSSVVTVPSSSLGTQTYICNMNHKPSNTKVDKKVEPKSCDKTHTCPPCPAPELLGGPSVFLFPPKPKDTLMISRTPEVTCVVVDVSHEDPEVKINWYVDGVEVHNAKTKPREEQYNSTYRVVSVLTVLHQDWLNGKEYKCKVSNKALPAPIENTISKAKGQPREPQMYTLPPSRDELTKNQVSLTCLVKGFYPSDIAVEWESNGQPENNYKTTPPVLDSDGSFFLYSKLTVDKSRWQQGNVFSCSVMHEALHNHYTQKSLSLSPGK", "x", 0.75),
]

Data credit: patent US20080112961A1
